These measurements were taken from patent US4584301A.

# TESTED TARGET: muscarinic cholinergic receptors
# ASSAY CONTEXT: rat brain homogenate, [3H]QNB, 25° C., pH 7.4; read-out: MRBA IC50
pIC50: −log10 of the molar value. Where a name gives a salt, the structure may show the parent alone.
ENDPOINT NAME: pIC50

CSC(=NC#N)NCCCN1CCC(=C(c2ccccc2)c2ccccc2)CC1 [Compound 21] ... 7.19
c1ccc(C(=C2CCN(CCCN3CCCCC3)CC2)c2ccccc2)cc1 [Compound 4, dihydrochloride, hemihydrate] ... 7.82
c1ccc(C(=C2CCN(CCN3CCOCC3)CC2)c2ccccc2)cc1 [Compound 1, dihydrochloride] ... 6.83
c1ccc(C(=C2CCN(CCN3CCCCC3)CC2)c2ccccc2)cc1 [Compound 3] ... 7.74
O=C(CCN1CCC(=C(c2ccccc2)c2ccccc2)CC1)N1CCC(O)(O)CC1 [Compound 11] ... 7.42
CN1CCCC1CCN1CCC(=C(c2ccccc2)c2ccccc2)CC1 (stereo not shown) [Compound 5, dihydrochloride, hemihydrate] ... 7.70
c1ccc(C(=C2CCN(CCN3CCCC3)CC2)c2ccccc2)cc1 [Compound 2, dihydrochloride] ... 8.08

###

# TESTED TARGET: Dopamine D2 receptor (Rattus norvegicus, UniProt P61169)
# Sequence (P61169 whole entry): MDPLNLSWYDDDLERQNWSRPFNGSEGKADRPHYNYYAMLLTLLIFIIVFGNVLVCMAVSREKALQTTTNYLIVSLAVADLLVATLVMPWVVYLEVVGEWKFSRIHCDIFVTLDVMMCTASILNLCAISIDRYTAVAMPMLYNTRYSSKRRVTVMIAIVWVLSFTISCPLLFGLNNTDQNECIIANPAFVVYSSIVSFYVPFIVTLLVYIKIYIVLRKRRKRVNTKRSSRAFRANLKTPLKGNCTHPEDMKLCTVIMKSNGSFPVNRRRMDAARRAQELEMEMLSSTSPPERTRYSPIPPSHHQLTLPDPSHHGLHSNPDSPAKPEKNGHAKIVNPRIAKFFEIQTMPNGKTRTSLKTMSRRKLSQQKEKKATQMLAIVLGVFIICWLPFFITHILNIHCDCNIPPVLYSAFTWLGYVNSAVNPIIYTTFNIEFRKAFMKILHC
# ASSAY DETAILS: Affinity for dopamine D2 receptors in rat brain membranes
pKi: −log10 of the molar value. Where a name gives a salt, the structure may show the parent alone.
ENDPOINT NAME: pKi

c1ccc(C(=C2CCN(CCN3CCOCC3)CC2)c2ccccc2)cc1 [Compound 1, dihydrochloride] ... 7.51
OCCC1CCN(CCCN2CCC(=C(c3ccccc3)c3ccccc3)CC2)CC1 [Compound 13, dihydrochloride, monohydrate] ... 6.80
N#CN=C(NCCCN1CCC(=C(c2ccccc2)c2ccccc2)CC1)N1CCCCC1 [Compound 23] ... 7.55
Cl.Cl.Fc1ccc(C(=C2CCN(CCN3CCCCC3)CC2)c2ccc(F)cc2)cc1 [Compound 15, dihydrochloride] ... 7.25
CSC(=NC#N)NCCCN1CCC(=C(c2ccccc2)c2ccccc2)CC1 [Compound 21] ... 7.49
c1ccc(C(=C2CCN(CCCN3CCCc4ccccc43)CC2)c2ccccc2)cc1 ... 7.38
c1ccc(C(=C2CCN(CCN3CCCCC3)CC2)c2ccccc2)cc1 [Compound 3] ... 6.98
Fc1ccc(C(=C2CCN(CCCN3CCCCC3)CC2)c2ccc(F)cc2)cc1 [Compound 14] ... 7.17
CC1(C)CC(=O)C=C(NCCN2CCC(=C(c3ccccc3)c3ccccc3)CC2)C1 [Compound 9] ... 7.12
OC1CCN(CCCN2CCC(=C(c3ccccc3)c3ccccc3)CC2)CC1 [Compound 12, hemihydrate] ... 7.60

###

# Test system: muscarinic cholinergic receptors
# Format: binding
# ASSAY CONTEXT: rat brain homogenate, [3H]QNB, 25° C., pH 7.4; concentration not given
Structures can show the parent of a compound that is named as a salt.
Entry flag: Yes if MRBA percent inhibition of total specific binding reaches 80%; No if it does not.

Cl.Cl.Fc1ccc(C(=C2CCN(CCN3CCCCC3)CC2)c2ccc(F)cc2)cc1 ... No
OCCC1CCN(CCCN2CCC(=C(c3ccccc3)c3ccccc3)CC2)CC1 [Compound 13, dihydrochloride, monohydrate] ... Yes
CN1CCCC1CCN1CCC(=C(c2ccc(F)cc2)c2ccc(F)cc2)CC1 (centres unmarked) ... No
OC1CCN(CCCN2CCC(=C(c3ccccc3)c3ccccc3)CC2)CC1 [Compound 12, hemihydrate] ... No
O=C(CCN1CCC(=C(c2ccccc2)c2ccccc2)CC1)N1CC=C(Oc2ccc(F)cc2)CC1 [Compound 8, dihydrate] ... No
Cl.Cl.O.c1ccc(C(=C2CCN(CCCN3CCCc4ccccc43)CC2)c2ccccc2)cc1 ... Yes
N#CN=C(NCCCN1CCC(=C(c2ccccc2)c2ccccc2)CC1)N1CCCCC1 ... Yes
CC1(C)CC(=O)C=C(NCCN2CCC(=C(c3ccccc3)c3ccccc3)CC2)C1 ... No

###

Some compounds, each annotated with its measured pKi.
# TESTED TARGET: Muscarinic Cholinergic receptor
# ASSAY DETAILS: Affinity for muscarinic cholinergic receptors in rat brain membranes
pKi: −log10 of the molar value.
ENDPOINT NAME: pKi

c1ccc(C(=C2CCN(CCCN3CCCc4ccccc43)CC2)c2ccccc2)cc1 ... 7.96
CSC(=NC#N)NCCCN1CCC(=C(c2ccccc2)c2ccccc2)CC1 [Compound 21] ... 8.07
CC1(C)CC(=O)C=C(NCCN2CCC(=C(c3ccccc3)c3ccccc3)CC2)C1 [Compound 9] ... 7.96
Cl.Cl.Fc1ccc(C(=C2CCN(CCN3CCCCC3)CC2)c2ccc(F)cc2)cc1 [Compound 15, dihydrochloride] ... 7.77
OC1CCN(CCCN2CCC(=C(c3ccccc3)c3ccccc3)CC2)CC1 [Compound 12, hemihydrate] ... 7.82
